PROCEDURE SUMMARY: in vivo
RUN PARAMETERS: pig, in vivo, level in homogenized vascular tissue at term, day 14; one value per test animal
MEASURED ATTRIBUTE: concentration at 14 days
The reply should read as a number followed by its unit.

Query: Dear colleague, I am looking for the recorded concentration at 14 days of the following compound: `CO[C@H]1C[C@@H]2CC[C@@H](C)[C@@](O)(O2)C(=O)C(=O)N2CCCC[C@H]2C(=O)O[C@H]([C@H](C)C[C@@H]2CC[C@@H](OC(=O)C(C)(CO)CO)[C@H](OC)C2)CC(=O)[C@H](C)/C=C(\C)[C@@H](O)[C@@H](OC)C(=O)[C@H](C)C[C@H](C)/C=C/C=C/C=C/1C`
Response: 50.3 ng/g
